STUDY_SYSTEM: Caspase-8 (Homo sapiens) (UniProt Q14790)
Sequence (Q14790 217-374 limits assumed): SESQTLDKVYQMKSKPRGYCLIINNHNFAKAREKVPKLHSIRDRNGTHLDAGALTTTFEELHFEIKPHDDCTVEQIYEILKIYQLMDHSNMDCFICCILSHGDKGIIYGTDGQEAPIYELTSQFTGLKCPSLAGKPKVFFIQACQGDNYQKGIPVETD
Sequence (Q14790 385-479 limits assumed): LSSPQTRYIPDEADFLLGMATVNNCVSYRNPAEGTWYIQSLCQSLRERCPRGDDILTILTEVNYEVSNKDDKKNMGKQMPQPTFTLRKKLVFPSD
TEST: Inhibitory activity against Caspase-8
MEASUREMENT_KIND: k3/Ki (M⁻¹ s⁻¹)
Give the value in M⁻¹ s⁻¹ but do not write M⁻¹ s⁻¹ after it.

Specify k3/Ki for C[C@H](NC(=O)C(=O)Nc1ccccc1Br)C(=O)N[C@@H](CC(=O)O)C(=O)COc1c(F)c(F)cc(F)c1F , system Caspase-8 (Homo sapiens) (UniProt Q14790).
542000

Specify k3/Ki for C[C@H](NC(=O)C(=O)Nc1cc(C(C)(C)C)ccc1C(C)(C)C)C(=O)N[C@@H](CC(=O)O)C(=O)COC(=O)c1c(Cl)cccc1Cl , system Caspase-8 (Homo sapiens) (UniProt Q14790).
68

Specify k3/Ki for C[C@H](NC(=O)C(=O)NCc1ccccc1)C(=O)N[C@@H](CC(=O)O)C(=O)COc1c(F)c(F)cc(F)c1F , system Caspase-8 (Homo sapiens) (UniProt Q14790).
32500

Specify k3/Ki for C[C@H](NC(=O)C(=O)Nc1ccccc1-c1ccc[nH]1)C(=O)N[C@@H](CC(=O)O)C(=O)COc1c(F)c(F)cc(F)c1F , system Caspase-8 (Homo sapiens) (UniProt Q14790).
1.2e+06

Specify k3/Ki for C[C@H](NC(=O)C(=O)Nc1ccccc1Oc1ccccc1)C(=O)N[C@@H](CC(=O)O)C(=O)COc1c(F)c(F)cc(F)c1F , system Caspase-8 (Homo sapiens) (UniProt Q14790).
154000

Specify k3/Ki for C[C@H](NC(=O)C(=O)Nc1ccccc1C(C)(C)C)C(=O)N[C@@H](CC(=O)O)C(=O)COP(=O)(c1ccccc1)c1ccccc1 , system Caspase-8 (Homo sapiens) (UniProt Q14790).
2.01e+06

Specify k3/Ki for C[C@H](NC(=O)C(=O)NC1CCCCC1)C(=O)N[C@@H](CC(=O)O)C(=O)COc1c(F)c(F)cc(F)c1F , system Caspase-8 (Homo sapiens) (UniProt Q14790).
2800

Entry source: ChEMBL document CHEMBL1141033
